Assay: In vivo pharmacokinetics, plasma and brain exposure after IP dosing
Design: species or system male C57BL/6 mice
Details: male, C57BL/6, mouse, brain, ip, 10 mg/kg, 0.5 h, individual mouse, read-out: Brain Parenchyma Concentration, Individual
REPORTED PROPERTY: concentration at 0.5 h (µM)
Your answer should be a plain number; it is taken to be in µM.

Consider the worked cases shown below.
Input: Which concentration at 0.5 h value belongs to CCN(C)CCc1c[nH]c2c(C)cc(OC)cc12 [Example P-51] ?
Output: 25.5

Input: Try CCN(C)CCc1c[nH]c2ccc(OC)c(C)c12 [Example P-37] next.
Output: 25.9

# next compound below
Input: Which concentration at 0.5 h value belongs to CCN(C)CCc1c[nH]c2cc(C)c(OC)cc12 [Example P-42] ?
Output: 21.3

---

Assay: In vivo pharmacokinetics, plasma and brain exposure after IP dosing
Design: species or system male C57BL/6 mice
Conditions: mouse, plasma; male C57BL/6 mice, IP 10 mg/kg
REPORTED PROPERTY: Tmax (min)
Your answer should be a plain number; it is taken to be in min.

Input: Which Tmax value belongs to "CCN(C)CCc1c[nH]c2ccc(OC)c(C)c12" ?
Output: 4.98

Input: Try "CCN(C)CCc1c[nH]c2c(C)cc(OC)cc12" next.
Output: 4.98

Input: Try "CCN(C)CCc1c[nH]c2cc(C)c(OC)cc12" next.
Output: 4.98

---

Molecular target: 5-HT2A receptor (Homo sapiens, UniProt P28223)
Construct: host or cells: HEK293
Sequence (P28223 whole entry): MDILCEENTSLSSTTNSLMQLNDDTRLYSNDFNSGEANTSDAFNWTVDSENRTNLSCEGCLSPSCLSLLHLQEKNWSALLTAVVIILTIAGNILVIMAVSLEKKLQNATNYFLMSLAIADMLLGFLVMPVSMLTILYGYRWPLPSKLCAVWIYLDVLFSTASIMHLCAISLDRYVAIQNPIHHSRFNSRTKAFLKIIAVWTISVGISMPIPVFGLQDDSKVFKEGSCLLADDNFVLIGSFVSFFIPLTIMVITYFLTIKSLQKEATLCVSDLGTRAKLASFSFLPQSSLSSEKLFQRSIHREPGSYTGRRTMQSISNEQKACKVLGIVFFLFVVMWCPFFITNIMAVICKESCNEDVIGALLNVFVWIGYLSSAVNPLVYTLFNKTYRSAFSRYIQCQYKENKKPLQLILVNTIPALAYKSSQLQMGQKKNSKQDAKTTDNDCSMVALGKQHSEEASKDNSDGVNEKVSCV
Experiment: FLIPR Ca2+ flux functional assay, 5-HT2A
Format: cell-based
Conditions: agonist activity, Ca2+ flux, HEK293 cells
REPORTED PROPERTY: Emax (%)
Your answer should be a plain number; it is taken to be in %.

Input: Which Emax value belongs to "CCN(C)CCc1c[nH]c2cc(F)cc(F)c12" ?
Output: 78.9

More entries:
Input: Which Emax value belongs to "CCN(CC)CCc1c[nH]c2cc(F)cc(OC)c12" ?
Output: 64.3

Input: Try "CCCN(C)CCc1c[nH]c2c(C)ccc(O)c12" next.
Output: 66.9

Input: Try "CCCN(CCC)CCc1c[nH]c2cc(C)c(OC)cc12" next.
Output: 77.5

Input: Try "COc1ccc2[nH]cc(CCN(C)C)c2c1C" next.
Output: 64.1

Input: Try "CCN(CC)CCc1c[nH]c2c(C)ccc(OC)c12" next.
Output: 42.4

Input: Try "CN(C)CCc1c[nH]c2cc(F)cc(F)c12" next.
Output: 91.6

Input: Try "CCN(C)CCc1c[nH]c2c(C)ccc(O)c12" next.
Output: 52

Input: Try "CC(C)N(CCc1c[nH]c2ccc(F)c(F)c12)C(C)C" next.
Output: 98.4

Input: Try "CC(C)N(C)CCc1c[nH]c2cc(F)cc(F)c12" next.
Output: 66.8

---

concentration at 0.083 h values by entry
Assay: In vivo pharmacokinetics, plasma and brain exposure after IP dosing
Design: species or system male C57BL/6 mice
Details: male, C57BL/6, mouse, brain, ip, 10 mg/kg, 0.083 h, n = 3, read-out: Brain Parenchyma Concentration, Mean ± SD
Your answer should be a plain number; it is taken to be in µM.

Consider the worked cases shown below.
Input: Which concentration at 0.083 h value belongs to "CCN(C)CCc1c[nH]c2c(C)cc(OC)cc12" ?
Output: 30.7

Input: Try "CCN(C)CCc1c[nH]c2cc(C)c(OC)cc12" next.
Output: 9.9

More entries:
Input: Which concentration at 0.083 h value belongs to "CCN(C)CCc1c[nH]c2ccc(OC)c(C)c12" ?
Output: 21.6
